Please respond with reported growth inhibition for every item in the list.
# Assay explanation: NCI Yeast Anticancer Drug Screen. Data for the sgs1 mgt1 strain (AID 161);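 further: 0% = growth of cultures given vehicle only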
# Condition info: S. cerevisiae sgs1 mgt1 strain, at 50.0 µM, stronger effect = higher value
The panel holds about 79,000 compounds, 15% with a hit somewhere; the sample as a whole holds those more often.
Answers are plain numbers, in %.

Quick one: give me growth inhibition for each item below, same order please.
1. CC[C@@H]1O[C@@H]([C@@H]2CC[C@](O)([C@]3(C)CC[C@@H]([C@@H](C)[C@@]4(O)CC[C@H](C)[C@@H](C[C@@]5(O)O[C@@H]([C@@H](C)[C@H](O)C[C@H]6CC[C@H](C)[C@@H]([C@@H](C)C(=O)O)O6)CC[C@@H]5C)O4)O3)O2)CC[C@@]1(C)O
2. O=[N+]([O-])c1c(Cl)c(Cl)c(O)c(Cl)c1Cl
3. O=c1cccccc1[O-].O=c1cccccc1[O-].O=c1cccccc1[O-].[Dy+3]
4. O=C(CC(=O)c1ccccc1)CC(O)(c1ccccc1)c1ccccc1
5. O=c1[nH]c2c([N+](=O)[O-])cc(Cl)cc2nc1/C=C(\O)c1cccc2ccccc12

stdout:
1: 89.2; 2: 90; 3: 91.6; 4: 89.7; 5: 89.5

* * *

# Assay explanation: NCI Yeast Anticancer Drug Screen. Data for the bub3 strain (AID 167)
# Condition info: S. cerevisiae bub3 mutant strain, at 50.0 µM
Compounds without any hit were thinned out: in the full panel of roughly 79,000, 15% have a hit. Activity calls are given as the source filed them. Cut-off read from the data, not from the text of the source: active = growth inhibition above about 70%; inactive = the rest.
Output constraint: value belongs to 1 for active, -1 for inactive

{"columns": ["Compound", "Assigned label"],
 "data": [
  ["O=S(=O)(ON=C1C=CC(=NOS(=O)(=O)c2ccccc2)C=C1)c1ccccc1", 1],
  ["O=C(O)c1ccccc1-c1ccccc1C(=O)Nc1ccc2c(c1)Cc1cc(F)ccc1-2", 1],
  ["OC(CBr)c1c(Br)ccc2ccccc12 (stereo unspecified)", -1],
  ["C=CCOCCC(=O)OCC=C", -1],
  ["Cc1cccc2c1C1c3c(C)cccc3C(O)CC1CC2O (stereo unspecified)", -1]
]}

Now for a further compound.
stdin: For CN(C)C1C[C@@H](O[Si](C)(C)C(C)(C)C)C=C1S(=O)(=O)c1ccccc1 (stereo partly specified) , which call appears in the assay record?
stdout: -1

* * *

# Assay explanation: NCI Yeast Anticancer Drug Screen. Data for the sgs1 mgt1 strain (AID 161);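 further: 0% = growth of cultures given vehicle only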
# Condition info: S. cerevisiae sgs1 mgt1 strain, at 5.0 µM (retest, dose inferred, filed as 0.5), stronger effect = higher value
About 79,000 compounds went through this panel and 15% of them were active in at least one assay; those are over-represented in the sample as a whole. Where a SMILES comes first, the peptide text is derived from it. [ ]: non-standard residue; d: D form. The star is where a group is joined. Phe(4-NO2) = N[CH](Cc1ccc([N+](=O)[O-])cc1)C(=O)O; Boc = CC(C)(C)OC(=O)*
Test readout: growth inhibition (%)
One number for each entry, in %.

{"columns": ["Compound", "Observed result"],
 "data": [
  ["CN1c2ccccc2Sc2c1n[nH]c2-c1ccccc1", 0],
  ["CN(C)C(=O)c1cc(Cl)cc(-c2ccccc2)c1O", -1],
  ["CC(C)O[C@H]1N(C2CC(N=[N+]=[N-])C(CO)O2)C(=O)NC(=O)[C@]1(C)Br (some centres undefined)", 0],
  ["C/C(=N/NC(=S)Nc1cccc(Cl)c1)c1ccccn1", 85],
  ["CNC(=O)CCC(NC(=O)OC(C)(C)C)C(=O)NC(Cc1ccc([N+](=O)[O-])cc1)C(=O)NCC(=O)NC (centres undefined) (Boc-Glu(NHMe)-[Phe(4-NO2)]-Gly-NHMe; configuration not given here)", -7]
]}

// for each compound in input: emit growth inhibition
1. CN(C)C1C[C@@H](O[Si](C)(C)C(C)(C)C)C=C1S(=O)(=O)c1ccccc1 (some centres undefined)
2. Oc1ccc(C(=C(Br)c2ccccc2)c2ccc(O)cc2)cc1
3. Cc1cc2c(C(C)C)c(O)c(O)c3coc(/c1=c1/c(C)cc4c(C(C)C)c(=O)c(=O)c5coc1c45)c32
4. CC1=C/C(=C\C=C2/N(C)c3c(C)cccc3C2(C)C)C(=O)c2ncccc21

stdout:
[-18, 99, 25, 19]

Cited source for all entries: PubChem BioAssay (NCI)
